The measurements presented in this section are drawn from patent US12344631B2.

Tested on: AML-12 hepatocyte cell line
procedure summary: Glutathione assay (total glutathione, GSH-Glo)
Type: cell-based, mouse
measurement context: benchmark RTA 402
Entries and their GSH EC50 Relative to RTA 402 (fold) (Mean ± SD) values follow.
Provide the reading as a plain figure in fold.

C[C@@H]1C(=O)C(C#N)=C[C@]2(C)C3=CC(=O)[C@@H]4[C@@H]5CC(C)(C)CC[C@]5(c5nc(C(F)F)no5)CC[C@@]4(C)[C@]3(C)CC[C@@H]12 [Compound T35] : 1.02
CCc1nc([C@]23CCC(C)(C)C[C@H]2[C@H]2C(=O)C=C4[C@@]5(C)C=C(C#N)C(=O)C(C)(C)[C@@H]5CC[C@@]4(C)[C@]2(C)CC3)no1 [Compound T24] : 2.53
CCc1nnc([C@]23CCC(C)(C)C[C@H]2[C@H]2C(=O)C=C4[C@@]5(C)C=C(C#N)C(=O)C(C)(C)[C@@H]5CC[C@@]4(C)[C@]2(C)CC3)o1 [Compound T46] : 1.24

Challenge: Given C[C@@H]1C(=O)C(C#N)=C[C@]2(C)C3=CC(=O)[C@@H]4[C@@H]5CC(C)(C)CC[C@]5(c5nc(C(F)(F)F)no5)CC[C@@]4(C)[C@]3(C)CC[C@@H]12 [Compound T36] , state its recorded GSH EC50 Relative to RTA 402 (fold) (Mean ± SD).
Response given: 5.40
